Target: rat CRF receptor type 2α (rat) (UniProt P47866)
Sequence (P47866 20-411): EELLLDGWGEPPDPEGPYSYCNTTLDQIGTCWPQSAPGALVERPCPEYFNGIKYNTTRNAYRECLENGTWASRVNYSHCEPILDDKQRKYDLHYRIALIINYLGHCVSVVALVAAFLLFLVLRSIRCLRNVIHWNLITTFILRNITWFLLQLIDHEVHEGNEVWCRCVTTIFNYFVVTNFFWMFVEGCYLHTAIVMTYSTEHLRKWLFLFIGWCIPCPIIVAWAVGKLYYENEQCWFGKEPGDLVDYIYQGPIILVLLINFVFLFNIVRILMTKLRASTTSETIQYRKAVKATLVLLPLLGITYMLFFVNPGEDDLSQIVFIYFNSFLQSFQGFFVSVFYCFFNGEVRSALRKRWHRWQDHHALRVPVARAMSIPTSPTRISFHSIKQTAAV
Test: radioligand displacement ([125I-Tyr0,Glu1,Nle17]-sauvagine), CHO membranes
pKi: −log10 of the molar value. Where no end group is shown, it is not given here.
recorded.metric: pKi

A: FTLSLDVPTNIMNLLFNIAKAKNLRAQAAANAHLMAQI-NH2 [Urocortin III (human)]
B: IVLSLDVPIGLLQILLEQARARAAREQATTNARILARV (peptide, UniProt Q96RP3 72-109, looked up) [Urocortin II (human)]
C: FTLSLDVPTNIMNILFNIDKAKNLRAKAAANAQLMAQI-NH2 [Urocortin III (mouse)]
Query string: Which order do these items take when sorted by rising pKi? List them. A ranking is expressed here by listing the labels in the requested order.
Result string: A, C, B
(A: 7.66, C: 8.30, B: 8.77)

// provenance: patent US20040143095A1
